The measured values listed here are drawn from BindingDB's records for doi:10.1021/jm00006a008.

Assay: Inhibition of bovine topoisomerase I, using cleavable complex assay.
# maps each entry to its pIC50
Conceptually, pIC50 converts a concentration in mol/L into minus its log10.

INSERT INTO assay_data (compound, measured_number) VALUES
  ('CC[C@]1(O)C(=O)OCc2c1cc1n(c2=O)C/C(=C2\C(=O)Nc3ccc(I)cc32)C1=O', 4.92),
  ('CCC1(O)C(=O)OCc2c1cc1n(c2=O)C/C(=C2\C(=O)Nc3cc(F)c(F)cc32)C1=O (stereo not drawn)', 5.82),
  ('CC[C@]1(O)C(=O)OCc2c1cc1n(c2=O)C/C(=C2\C(=O)Nc3ccc(C)cc32)C1=O', 5.74);

Given CCC1(O)C(=O)OCc2c1cc1n(c2=O)C/C(=C2\C(=O)Nc3cc4c(cc32)OCCO4)C1=O (stereo not drawn) , state its recorded pIC50. 4.53
